Hey, just so you know, these numbers are from PubChem BioAssay AID2060903.

viability, T/C: recorded values
- System: 377384-186-R-J1-PDC complex spheroid viability
- assay_comment: Anticancer human tumor 377384-186-R-J1-PDC patient-derived pancreatic carcinoma cell line growth inhibition [RAS]
- condition_details: second compound 0.000949 µM; first compound 0.3 µM; stronger effect = lower value
All answers are understood in %, so give the number only.

Could you tell me which viability, T/C is on file for CCc1c2c(nc3ccc(O)cc13)-c1cc3c(c(=O)n1C2)COC(=O)[C@]3(O)CC + CCn1c(-c2cc(N3CCN(C)CC3)cnc2C(C)OC)c2c3cc(ccc31)-c1csc(n1)CC(NC(=O)C1CC1C)C(=O)N1CCCC(N1)C(=O)OCC(C)(C)C2 ?
1.79

Look up viability, T/C for this compound: CC1(C)CCC(Nc2ncc(C(F)(F)F)c(-c3c[nH]c4c(P(C)(C)=O)c(C#N)ccc34)n2)CN1 (centres undefined) + CCn1c(-c2cc(N3CCN(C)CC3)cnc2C(C)OC)c2c3cc(ccc31)-c1csc(n1)CC(NC(=O)C1CC1C)C(=O)N1CCCC(N1)C(=O)OCC(C)(C)C2
14

For CCc1c2c(nc3ccc(O)cc13)-c1cc3c(c(=O)n1C2)COC(=O)[C@]3(O)CC + CCn1c(-c2cccnc2C(C)OC)c2c3cc(ccc31)N1CCOC(CC(NC(=O)C(C(C)C)N(C)C(=O)C3(F)CCN(C(=O)C#CC(C)(C)N(C)C)CC3)C(=O)N3CCCC(N3)C(=O)OCC(C)(C)C2)C1 , what is its reported viability, T/C?
1.53

More entries:
What value of viability, T/C has been reported for the following compound? CC1(C)CCC(Nc2ncc(C(F)(F)F)c(-c3c[nH]c4c(P(C)(C)=O)c(C#N)ccc34)n2)CN1 (centres undefined) + CCn1c(-c2cccnc2C(C)OC)c2c3cc(ccc31)N1CCOC(CC(NC(=O)C(C(C)C)N(C)C(=O)C3(F)CCN(C(=O)C#CC(C)(C)N(C)C)CC3)C(=O)N3CCCC(N3)C(=O)OCC(C)(C)C2)C1
22.8

----------
- Tested on: 377384-186-R-J1-PDC complex spheroid viability
- assay_comment: Anticancer human tumor 377384-186-R-J1-PDC cell line growth inhibition [RAS];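 further: spheroids exposed to compounds for seven days before readout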
- condition_details: second compound 0.1 µM; first compound 10 µM; stronger effect = lower value
measure: viability, T/C

Some compounds with recorded viability, T/C:
// viability, T/C lookup, key: Cc1nc(N2CCC3(CC2)COC(C)C3N)c(CO)nc1Sc1ccnc(N)c1Cl (stereo unspecified) + C#Cc1c(F)ccc2cc(O)cc(-c3ncc4c(N5CC6CCC(C5)N6)nc(OCC56CCCN5CC(F)C6)nc4c3F)c12
0.63%

What value of viability, T/C has been recorded for this entry: CC(C)NCC(C(=O)N1CCN(c2ncnc3c2C(C)CC3O)CC1)c1ccc(Cl)cc1 (stereo unspecified) + C#Cc1c(F)ccc2cc(O)cc(-c3ncc4c(N5CC6CCC(C5)N6)nc(OCC56CCCN5CC(F)C6)nc4c3F)c12
3.99%

Fill blank: measured viability, T/C of the compound CC1(O)CCCC1n1c(=O)c(C(F)F)cc2cnc(NC3CCN(S(C)(=O)=O)CC3)nc21 (stereo unspecified) + C=CC(=O)N1CCN(c2nc(OCC3CCCN3C)nc3c(F)c(-c4nc(N)cc(C)c4C(F)(F)F)c(Cl)cc23)C(C)C1 is ____.
4.69%

Any idea what its viability, T/C is? The compound is CC(Nc1ccc2c(c1)OCCn1cc(N3C(=O)OCC3C(F)F)nc1-2)C(N)=O (stereo unspecified) + C#Cc1c(F)ccc2cc(O)cc(-c3ncc4c(N5CC6CCC(C5)N6)nc(OCC56CCCN5CC(F)C6)nc4c3F)c12
0.7%

Record request: viability, T/C value, item NC1c2ccccc2OC12CCN(c1cnc3c(N4CCCc5ncccc54)n[nH]c3n1)CC2 (stereo unspecified) + C=CC(=O)N1CCN(c2nc(OCC3CCCN3C)nc3c(F)c(-c4nc(N)cc(C)c4C(F)(F)F)c(Cl)cc23)C(C)C1
70.7%

***
Reported viability, T/C, compound NC1c2ccccc2OC12CCN(c1cnc3c(N4CCCc5ncccc54)n[nH]c3n1)CC2 (stereo unspecified) + C#Cc1c(F)ccc2cc(O)cc(-c3ncc4c(N5CC6CCC(C5)N6)nc(OCC56CCCN5CC(F)C6)nc4c3F)c12 : ____
0.25%

Which viability, T/C is listed for CC(=O)OC12COC1CC(O)C1(C)C(=O)C(O)C3=C(C)C(OC(=O)C(O)C(NC(=O)OC(C)(C)C)c4ccccc4)CC(O)(C(OC(=O)c4ccccc4)C21)C3(C)C (stereo unspecified) + C=CC(=O)N1CCN(c2nc(OCC3CCCN3C)nc3c(F)c(-c4nc(N)cc(C)c4C(F)(F)F)c(Cl)cc23)C(C)C1 ?
9.63%

Reported viability, T/C for C[C@@H](NC(=O)c1ncnc(N)c1Cl)c1ncc(C(=O)Nc2cc(C(F)(F)F)c(Cl)cn2)s1 + C=CC(=O)N1CCN(c2nc(OCC3CCCN3C)nc3c(F)c(-c4nc(N)cc(C)c4C(F)(F)F)c(Cl)cc23)C(C)C1 : what is it?
124%
